biological target: Beta-secretase 1 (Homo sapiens); assay: Inhibition of BACE1 in […] PC12 cells expressing APP Sweden mutant; format: cell-based, PC-12
Sequence (P56817 whole entry): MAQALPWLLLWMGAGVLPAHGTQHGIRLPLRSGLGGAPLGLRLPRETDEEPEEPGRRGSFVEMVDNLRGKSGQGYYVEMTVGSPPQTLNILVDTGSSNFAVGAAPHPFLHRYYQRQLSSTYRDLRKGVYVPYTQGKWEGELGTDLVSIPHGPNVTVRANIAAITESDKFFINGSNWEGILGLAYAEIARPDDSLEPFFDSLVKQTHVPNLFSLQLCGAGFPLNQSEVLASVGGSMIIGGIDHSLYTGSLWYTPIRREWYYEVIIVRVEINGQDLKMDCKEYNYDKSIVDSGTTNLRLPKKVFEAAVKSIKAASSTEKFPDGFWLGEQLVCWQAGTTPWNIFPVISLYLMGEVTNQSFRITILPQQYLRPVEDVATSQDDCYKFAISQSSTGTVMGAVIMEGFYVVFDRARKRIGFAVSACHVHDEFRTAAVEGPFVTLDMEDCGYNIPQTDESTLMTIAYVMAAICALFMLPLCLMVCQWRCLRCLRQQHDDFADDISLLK
Reported property: IC50 (nM)
Numbers only, in nM.

[[record]]
structure_as_smiles = "CC(C)(C)OC(=O)N1C[C@H](Nc2nc3cc(F)ccc3[nH]2)[C@@H](OCc2ccc(-c3ccccc3)cc2)C1"
experimental_value = 1700


Input: Lookup: IC50 / Beta-secretase 1 (Homo sapiens) / Cc1ccc2[nH]c(N[C@H]3CNC[C@@H]3OC(=O)c3ccc(-c4ccccc4)cc3)nc2c1
Output: 3200

----------
molecular target: Beta-secretase 1 (Homo sapiens); test: Inhibition of BACE1 (unknown origin)
Reported property: IC50
Reply with a number, then the unit it belongs to.

Input: Would you mind telling me what IC50 value was observed for COc1ccc(N2CCN([C@@H]3CN(C(=O)Nc4cc(Cl)cc(Cl)c4)CC[C@H]3OC(=O)c3ccc(Oc4ccccc4)cc3)CC2)cc1 ?
Output: 600 nM
